- Tested on: normal embryonic kidney (HEK-293) cells
- protocol: MTT cytotoxicity assay, HEK-293
- Assay type: cell-based, human
- particulars: normal cell, 48 h, means of three independent experiments
pIC50: −log10 of the molar value.
# pIC50 values compiled below

chemicalSmiles: COc1ccc([N+]2=N[N](c3cccc(S(N)(=O)=O)c3)[Cu-]2([O]C(C)=O)[O]C(C)=O)cc1
pIC50: 3.80

chemicalSmiles: CC(=O)[O][Ag][N](N=Nc1ccc(C(=O)O)cc1)c1cccc(S(N)(=O)=O)c1
pIC50: 5.00

chemicalSmiles: COc1ccc(N=N[N]([Ag][O]C(C)=O)c2cccc(S(N)(=O)=O)c2)cc1OC
pIC50: 5.26

* * *

- System: normal embryonic kidney (HEK-293) cells
- protocol: MTT cytotoxicity assay, HEK-293
- Format: cell-based, human
- particulars: normal cell, 48 h, means of three independent experiments

chemicalSmiles: CC(=O)[O][Cu-]1([O]C(C)=O)[N](c2cccc(S(N)(=O)=O)c2)N=[N+]1c1cc(C)cc(C)c1
ltGtEq: =
IC50, µM: 36.3
//
chemicalSmiles: CC(=O)[O][Cu-]1([O]C(C)=O)[N](c2cccc(S(N)(=O)=O)c2)N=[N+]1c1ccc(F)cc1
ltGtEq: =
IC50, µM: 68.8
//
chemicalSmiles: COc1ccc(N=N[N]([Ag][O]C(C)=O)c2cccc(S(N)(=O)=O)c2)cc1
ltGtEq: =
IC50, µM: 17.8
//
chemicalSmiles: CC(=O)[O][Ag][N](N=Nc1cc(C)cc(C)c1)c1cccc(S(N)(=O)=O)c1
ltGtEq: =
IC50, µM: 30.5
//
chemicalSmiles: COc1ccc([N+]2=N[N](c3cccc(S(N)(=O)=O)c3)[Cu-]2([O]C(C)=O)[O]C(C)=O)cc1OC
ltGtEq: =
IC50, µM: 197
//
chemicalSmiles: CC(=O)[O][Ag][N](N=Nc1ccc(F)cc1)c1cccc(S(N)(=O)=O)c1
ltGtEq: >
IC50, µM: 300
//
chemicalSmiles: CC(=O)[O][Cu-]1([O]C(C)=O)[N](c2cccc(S(N)(=O)=O)c2)N=[N+]1c1ccc(C(=O)O)cc1
ltGtEq: =
IC50, µM: 135

* * *

- System: breast adenocarcinoma (MDA-MB-231) cells
- protocol: MTT cytotoxicity assay, MDA-MB-231
- Assay type: cell-based, human
- particulars: Homo sapiens, MDA-MB-231, cancer cell, 48 h, means of three independent experiments

compound: O=c1[nH]cc(F)c(=O)[nH]1 [Compound 5-FU, 5-Fluorouracil, reference compound]
testedTarget: breast adenocarcinoma (MDA-MB-231) cells
ltGtEq: =
IC50, µM: 22.4
//
compound: NS(=O)(=O)c1cccc(N/N=N/c2ccc(F)cc2)c1 [Compound L1]
testedTarget: breast adenocarcinoma (MDA-MB-231) cells
ltGtEq: =
IC50, µM: 104
//
compound: COc1ccc(/N=N/Nc2cccc(S(N)(=O)=O)c2)cc1OC [Compound L4]
testedTarget: breast adenocarcinoma (MDA-MB-231) cells
ltGtEq: =
IC50, µM: 155
//
compound: COc1ccc(/N=N/Nc2cccc(S(N)(=O)=O)c2)cc1 [Compound L2, 3–(3-(4-methoxyphenyl)triaz-1-en-1-yl)]
testedTarget: breast adenocarcinoma (MDA-MB-231) cells
ltGtEq: =
IC50, µM: 144
//
compound: Cc1cc(C)cc(NN=Nc2cccc(S(N)(=O)=O)c2)c1 [Compound L5]
testedTarget: breast adenocarcinoma (MDA-MB-231) cells
ltGtEq: =
IC50, µM: 144
//
compound: NS(=O)(=O)c1cccc(N/N=N/c2ccc(C(=O)O)cc2)c1 [Compound L3]
testedTarget: breast adenocarcinoma (MDA-MB-231) cells
ltGtEq: >
IC50, µM: 300
